assayed system: Cytochrome P450 3A4 (Homo sapiens) (UniProt P08684)
Sequence (P08684 whole entry, looked up): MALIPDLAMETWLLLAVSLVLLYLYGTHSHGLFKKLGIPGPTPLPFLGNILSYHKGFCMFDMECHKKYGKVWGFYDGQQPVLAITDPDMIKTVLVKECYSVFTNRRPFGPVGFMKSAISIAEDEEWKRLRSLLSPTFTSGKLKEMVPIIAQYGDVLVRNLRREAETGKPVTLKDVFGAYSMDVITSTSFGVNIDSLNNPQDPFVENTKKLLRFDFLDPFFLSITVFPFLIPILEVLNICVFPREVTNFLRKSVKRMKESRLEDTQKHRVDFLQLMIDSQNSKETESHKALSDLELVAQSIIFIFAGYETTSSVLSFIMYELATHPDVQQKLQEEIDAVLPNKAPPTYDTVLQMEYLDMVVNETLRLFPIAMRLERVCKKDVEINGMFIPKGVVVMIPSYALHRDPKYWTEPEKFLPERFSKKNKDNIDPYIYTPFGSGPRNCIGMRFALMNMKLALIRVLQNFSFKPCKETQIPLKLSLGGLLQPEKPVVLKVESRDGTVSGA
test summary: Cytochrome panel assay with activity outcomes
condition set: recombinant CYP, pro-luciferin dealkylation, luminescence, p450-cyp3a4; series mostly up to 57.1 µM
About 5,100 (32%) of roughly 16,000 compounds were called active. About 25% were inconclusive and are not listed. The call rests on the fitted dose curve; in most records, active means well fitted curve in the direction sought with a large enough effect; inconclusive means small, poorly fitted or top-dose-only effect, or effect the other way; inactive means no such curve, though single readings can be large or run the other way. The list shows a part of the results.
Possible outcomes: 1 = active, 0 = inactive

>  <compound>
N#Cc1cccc(NC(=O)N2CCCC3(CCN(C(=O)c4ccco4)CC3)C2)c1

>  <classification>
1

$$$$
>  <compound>
CC(C)OC(=O)C(CC(=O)O)N1CCOCC1 (stereo unspecified)

>  <classification>
0

$$$$
>  <compound>
CCCCCCCCCCCCC(=O)N1CCCC[C@H]1CNC(=O)[C@@H](N)CCCCN

>  <classification>
0

$$$$
>  <compound>
CC(=O)N1CCN(C)CC1

>  <classification>
0

$$$$
>  <compound>
N#Cc1cccc(NC(=O)N2CCCC3(CCN(C(=O)c4cccc(F)c4)CC3)C2)c1

>  <classification>
1

$$$$
>  <compound>
CCc1ccc(N2C(=O)c3ccc4c5c(ccc(c35)C2=O)CC4)cc1

>  <classification>
0

$$$$
>  <compound>
CCOC(=O)C(C)CC(C)C(=O)N1CCOCCN(C(=O)C(C)CC(C)C(=O)OCC)CCOCC1 (stereo unspecified)

>  <classification>
1

$$$$
>  <compound>
CCC(Sc1ncccc1C(=O)O)C(=O)N1CCOCC1 (stereo unspecified)

>  <classification>
0

$$$$
>  <compound>
COC(=O)C1(C)C=C2C(=C(c3ccccc3)C(=O)C2C)CN1 (stereo unspecified)

>  <classification>
1

$$$$
>  <compound>
COC(=O)C1(Cc2ccccc2)C=C2C(=C(C(C)C)C(=O)C2C)CN1 (stereo unspecified)

>  <classification>
1

$$$$
>  <compound>
COc1ccc2nc(N)sc2c1

>  <classification>
0

$$$$

====

assayed system: Cytochrome P450 3A4 (Homo sapiens) (UniProt P08684)
test summary: Cytochrome panel assay with activity outcomes
condition set: recombinant CYP, pro-luciferin dealkylation, luminescence, p450-cyp3a4; series mostly up to 57.1 µM
About 5,100 (32%) of roughly 16,000 compounds were called active. Roughly 25% stayed inconclusive and do not appear here. Calls come from the whole dose curve; as a rule, active = well fitted curve in the direction sought with a large enough effect; inconclusive = small, poorly fitted or top-dose-only effect, or effect the other way; inactive = no such curve, though single readings can be large or run the other way. The list shows a part of the results.
Possible outcomes: active, inactive

>  <molecule>
O=C(N/N=C/c1cc([N+](=O)[O-])ccc1N1CCNCC1)c1ccc([N+](=O)[O-])cc1

>  <assayed system>
Cytochrome P450 3A4 (Homo sapiens) (UniProt P08684)

>  <classification>
inactive

$$$$
>  <molecule>
CC(CCc1ccccc1)NC(=O)C(=O)NCCO (stereo unspecified)

>  <assayed system>
Cytochrome P450 3A4 (Homo sapiens) (UniProt P08684)

>  <classification>
inactive

$$$$
>  <molecule>
O=C(c1ccc(Br)cc1)c1cc([N+](=O)[O-])ccc1N1CCCCC1

>  <assayed system>
Cytochrome P450 3A4 (Homo sapiens) (UniProt P08684)

>  <classification>
active

$$$$
>  <molecule>
CCNCc1cc(OCC)c(OCC(=O)NCCc2ccccc2)cc1Cl

>  <assayed system>
Cytochrome P450 3A4 (Homo sapiens) (UniProt P08684)

>  <classification>
active

$$$$
>  <molecule>
CCOc1ccc(Cl)cc1CNCCNCCO

>  <assayed system>
Cytochrome P450 3A4 (Homo sapiens) (UniProt P08684)

>  <classification>
inactive

$$$$
>  <molecule>
CN1CCN(S(=O)(=O)c2cc([N+](=O)[O-])ccc2N2CCCCCC2)CC1

>  <assayed system>
Cytochrome P450 3A4 (Homo sapiens) (UniProt P08684)

>  <classification>
active

$$$$
